test system: PPARg:RXRa DBDmut IVT, anti-RXR (DBD mutation: RXRa K156A/R161A, NR concentration 270 nM, RXRa partner concentration 90 nM); test: PBM binding z-score (relative to random genomic background probes); higher = stronger binding; sequences stand for … in GC…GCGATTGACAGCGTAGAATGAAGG
Below, each of the sequences is paired with its reported PBM binding z-score value.
// response body must contain only the number

Here are 10 sequences together with their reported answers.
sequence: TCATATAGGTAAACAGGTGATAGTCCGTAAGTTA
endpoint_value: 4.54
--
sequence: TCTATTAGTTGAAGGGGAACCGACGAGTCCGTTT
endpoint_value: 3
--
sequence: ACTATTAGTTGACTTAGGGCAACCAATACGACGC
endpoint_value: 0.203
--
sequence: TGAATGAGGTTAAAGATCAGGGAACGTGGCGTCG
endpoint_value: 2.04
--
sequence: GGCACGAGGGCAAGTTGATAGCAGAGTTTGATGG
endpoint_value: 2.14
--
sequence: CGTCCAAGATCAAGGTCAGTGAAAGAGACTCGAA
endpoint_value: 1.25
--
sequence: CGTCAAAGTTCAAGGTAACATAACAGAAAGCAGC
endpoint_value: 0.0346
--
sequence: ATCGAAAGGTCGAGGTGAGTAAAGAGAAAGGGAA
endpoint_value: 0.198
--
sequence: TCTTGTAGATCAGCAGGTTAAGAATGCTGGCCAA
endpoint_value: 1.36
--
sequence: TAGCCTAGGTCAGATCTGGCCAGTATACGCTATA
endpoint_value: 0.589

Query block: For the sequence `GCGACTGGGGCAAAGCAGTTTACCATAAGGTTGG` , what PBM binding z-score is on record?
Result block: 4.75

Query block: Another sequence to check: `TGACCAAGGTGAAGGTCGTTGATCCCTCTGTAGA`
Result block: 1.27
